pIC50: −log10 of the molar value.
Consider the following pIC50 data for UniProt Q9BY41, collected from several reports.

Recorded pIC50, per entry:
                                   molecule  result
0  NC(=O)c1ccc(COc2ccc(-n3cc4cccc(C(N)=O)c4n3)cc2)cc1  < 4.00
1                                Brc1cccnc1  < 4.30

// switching to the query compound
Find the measured pIC50 of `CCC(=O)CCCCC[C@@H]1NC(=O)[C@H]2CC23CCN(CCCCCCCCn2ccc4cc(ccc4c2=O)-c2cnc1[nH]2)CC3` with UniProt Q9BY41 as test system.
< 6.05

----------
Target system: UniProtKB Q9BY41
Sequence (Q9BY41 whole entry): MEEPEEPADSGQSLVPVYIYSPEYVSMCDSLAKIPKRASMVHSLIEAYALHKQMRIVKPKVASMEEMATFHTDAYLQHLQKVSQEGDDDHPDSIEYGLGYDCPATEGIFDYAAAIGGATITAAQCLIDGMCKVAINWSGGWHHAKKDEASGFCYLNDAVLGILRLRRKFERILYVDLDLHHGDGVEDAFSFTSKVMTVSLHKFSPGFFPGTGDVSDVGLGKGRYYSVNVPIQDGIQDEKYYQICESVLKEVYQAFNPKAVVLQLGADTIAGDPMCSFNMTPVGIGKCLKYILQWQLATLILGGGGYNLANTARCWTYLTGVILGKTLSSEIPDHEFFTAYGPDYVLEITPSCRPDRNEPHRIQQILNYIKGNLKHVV
pIC50: −log10 of the molar value.
Several publications report pIC50 on UniProtKB Q9BY41; those values are gathered here.

>>> print(df.to_string())
                                   molecule  property_label  result
0  COc1ccc(N(C)c2nc(C)nc3ccccc23)cc1OCC(=O)NO           pIC50  < 6.00
1             CC(=O)N(O)CCCCCC(=O)Nc1ccccc1           pIC50  < 4.00

Quick one: give measured pIC50 for `Cc1ccc(NC(=O)c2ccc(CNC(=O)OCc3cccnc3)cc2)c(N)c1`
< 4.00
